- Tested on: CCRF-CEM leukemia
- ASSAY_EXPLANATION: NCI tumour cell line growth inhibition, 48 h
PROPERTY_LABEL: TGI (µM)
Your answer is read as µM, so omit the unit and give the number.

- MOLECULE: "O=C1Nc2ccc(Cl)cc2/C1=C\\c1c(Cl)nc2sccn12"
  TGI / µM: 62.3

[Q] # lookup: TGI of CC1C2(C)OC(=N)C(C#N)(C(c3cccc([N+](=O)[O-])c3)O2)C1(C#N)C#N (stereo not drawn)
[A] 52.2

---

- System: CCRF-CEM leukemia
- ASSAY_EXPLANATION: NCI tumour cell line growth inhibition, 48 h; in the data active = GI50 below about 0.43 µM; inactive = the rest
Mark one answer only. Choices: 1 (yes) (active), 0 (no) (inactive)

Solved entries:
- COMPOUND: "OCC(O)c1nc2ccc3[nH]ncc3c2c2c1CCCC2 (configuration not stated)"
  CLASS_ASSIGNMENT: "0 (no)"
- COMPOUND: "COc1nc(N)nc2c1ncn2C1OC(CO)C(O)C1O (configuration not stated)"
  CLASS_ASSIGNMENT: "0 (no)"
- COMPOUND: "CNC(=O)Cc1nc(-c2cccc(NS(=O)(=O)c3c(F)cccc3F)c2F)c(-c2ccnc(Nc3ccccc3)n2)s1"
  CLASS_ASSIGNMENT: "0 (no)"
- COMPOUND: "Cc1cc(C)c(Cn2cnc3c(Cl)ncnc32)c(C)c1CCl"
  CLASS_ASSIGNMENT: "0 (no)"

[Q] What did this assay record as the result for NC(=O)c1cccc(Nc2nccc(Nc3cccc4[nH]ncc34)n2)c1 ?
[A] 0 (no)

[Q] Hi, sorry to bother you, what did the test record for COC(=O)c1cc(O)c2c(c1C(=O)OC)C[C@H]1[C@@H]3CC=C4C[C@@H](O)CC[C@]4(C)[C@H]3CC[C@]21C ?
[A] 0 (no)

[Q] Record lookup: outcome of this test for Cc1cn2c(/C=N/N=C(N)N)c(-c3cccs3)nc2s1 ?
[A] 0 (no)

[Q] Tell me the assay call for COc1ccc(/C=N\Nc2ccc([N+](=O)[O-])cn2)cc1OC please.
[A] 0 (no)

[Q] Could you kindly confirm the outcome this assay logged for CCOC(=O)CC1C(COC(=O)NC)OC(n2cnc3c(NC(=O)Nc4ccccc4)ncnc32)C1O[Si](C)(C)C(C)(C)C (configuration not stated) ?
[A] 0 (no)

---

- Tested on: HCT-15 colon
- ASSAY_EXPLANATION: NCI tumour cell line growth inhibition, 48 h
Recorded TGI by entry

Consider the worked cases shown below.
- COMPOUND: "Cc1nc(N2CCC3(CC2)CO[C@@H](C)[C@H]3N)c(CO)nc1Sc1ccnc(N)c1Cl"
  TGI: "> 100 µM"
- COMPOUND: "COc1ccc(OC)c(NS(=O)(=O)c2ccc3nc(C)n(NS(=O)(=O)c4cc(OC)ccc4OC)c(=O)c3c2)c1"
  TGI: "> 100 µM"
- COMPOUND: "O=S(=O)(/N=C(\\NO)Nc1ccc(Cl)cc1)c1cccc2nsnc12"
  TGI: "> 100 µM"
- COMPOUND: "COc1ccc(CN=C(N)N)c2ccccc12"
  TGI: "> 100 µM"

[Q] Recorded TGI of CCn1c(-c2cc3ccccc3cc2O)nn(C(=O)c2c(Cl)cccc2Cl)c1=S , please.
[A] > 50 µM

[Q] Quick check: TGI of COc1cc(-c2nc(-c3nc4ccccc4[nH]3)cc3c2[nH]c2ccccc23)cc(OC)c1OC ?
[A] > 100 µM

[Q] Please look up its TGI: CN(C)c1nc(=Nc2cccc(Cl)c2)ss1
[A] 27.9 µM

[Q] Request the reported TGI associated with O=C1/C(=C\c2ccccn2)c2ccccc2N1c1c(Cl)cccc1Cl
[A] 5.3 µM

[Q] If you can, please state the reported TGI value of COC(=O)C(Cc1nc2ccccc2[nH]c1=O)C(=O)C(=O)Nc1ccc([N+](=O)[O-])cc1[N+](=O)[O-] (stereo unspecified) .
[A] 34.5 µM

[Q] Find the recorded TGI belonging to CC/C(CC(=O)CCC(=O)Nc1ccccc1[N+](=O)[O-])=N/NC(=O)C[n+]1ccccc1 and report it.
[A] > 100 µM

[Q] Please report the recorded TGI for COc1nc(N)nc2c1ncn2C1OC(CO)C(O)C1O (stereo unspecified) .
[A] > 5000 µM

[Q] Look up TGI for this compound: COc1cc(Nc2nc3ccccc3cc2C(=O)Nc2ccc(F)c(F)c2)cc(OC)c1OC
[A] > 100 µM

[Q] Form field: reported TGI of CCCCON1C[C@H](OC(C)=O)C(OC(C)=O)[C@H](OC(C)=O)C1 (stereo partly specified)
[A] > 100 µM
